Entries and their inhibition
- measured_on: Protein RecA (Mycobacterium tuberculosis (strain ATCC 25618 / H37Rv))
- assay_text: Mtb RecA intein splicing inhibitors, primary screen, biochemical, fluorescence, HTS (AID 2221);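 note: 0% = vehicle wells and 100% = reference inhibitor control wells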
- condition_context: cell-free RecA intein splicing, hits give high values, concentration not given here
Hit rate of the full screen: of about 290,000 compounds, about 2,200 (0.76%) were called active. The sample holds actives, similar compounds and a random draw of the others, so the mix is not that of the screen.
The answer is to be given in %; state only the numeric part.

Answered examples (3):
>>> print(df.to_string())
                                   compound  reported_result
0            Oc1ccc(/C=N/NC2=NCCCCC2)c(O)c1            -9.19
1  Cc1cc(C)cc(NC(=O)C2CCN(c3nc(C)cc(C)n3)CC2)c1            -1.54
2    CCCCN1C(=O)/C(=C(/C#N)C(N)=O)c2ccccc21             1.79

Consider now this further compound.
inhibition on Protein RecA (Mycobacterium tuberculosis (strain ATCC 25618 / H37Rv)) for Cc1ccccc1C(CC(=O)c1cccs1)C(C#N)C#N (stereo not drawn) is 63.2

* * *

- measured_on: Protein RecA (Mycobacterium tuberculosis (strain ATCC 25618 / H37Rv))
- assay_text: Mtb RecA intein splicing inhibitors, primary screen, biochemical, fluorescence, HTS (AID 2221);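 note: 0% = vehicle wells and 100% = reference inhibitor control wells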
- condition_context: cell-free RecA intein splicing, concentration not given here
Among all 290,000 compounds or so, about 2,200 (0.76%) were called active. No stated cut-off is given here; in the data, active means inhibition above about 30%; inconclusive means no clear call, values can overlap the other calls; inactive means below that. The sample as a whole holds a higher share of actives than the screen did.
Answer with one of the outcomes given here: active, inactive

As a guide, the following entries are already answered.
In [3]: df
Out[3]:
                                   compound                               measured_on  classification
0  COCCCC1CCN(C(=O)C2CCC(=O)N(C3CCCCCC3)C2)CC1 (configuration not stated)  Protein RecA (Mycobacterium tuberculosis (strain ATCC 25618 / H37Rv))        inactive
1    Cc1ccc(SCc2cc(=O)[nH]c(N3CCCCC3)n2)cc1  Protein RecA (Mycobacterium tuberculosis (strain ATCC 25618 / H37Rv))        inactive
2                   Cc1ccc(SCCSc2ncccn2)cc1  Protein RecA (Mycobacterium tuberculosis (strain ATCC 25618 / H37Rv))        inactive
3    O=c1[nH]n2c(-c3ccccc3)nc(O)c2c2ccccc12  Protein RecA (Mycobacterium tuberculosis (strain ATCC 25618 / H37Rv))        inactive
4           O=C(NCCCn1ccnc1)c1cc(Br)c(Br)s1  Protein RecA (Mycobacterium tuberculosis (strain ATCC 25618 / H37Rv))        inactive

Prompt: Look up the recorded call for Cc1ccccc1Cn1c(=O)[nH]c2ccccc21 in this test.
Completion: inactive

Prompt: Look up the recorded call for Cc1ccc(SCC2=NNC(=O)C2)cc1 in this test.
Completion: active

* * *

- measured_on: Protein RecA (Mycobacterium tuberculosis (strain ATCC 25618 / H37Rv))
- assay_text: Mtb RecA intein splicing inhibitors, primary screen, biochemical, fluorescence, HTS (AID 2221);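 note: 0% = vehicle wells and 100% = reference inhibitor control wells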
- condition_context: cell-free RecA intein splicing, concentration not given here
Hit rate of the full screen: of about 290,000 compounds, about 2,200 (0.76%) were called active. Rule as the data show it: active = inhibition above about 30%; inconclusive = no clear call, values can overlap the other calls; inactive = below that. Only a selection was taken, and actives are over-represented in it overall.
Answer with one of the outcomes given here: active, inactive

>>> print(df.to_string())
                       compound  classification
0  CCNC(=O)CSc1nc(-c2ccccc2)cs1        inactive

Prompt: Look up the recorded call for CCCc1nnc(NC(=O)CCC(=O)NC2CC2)s1 in this test.
Completion: inactive

Prompt: Look up the recorded call for O=C(CSc1nc2ccccc2c(=O)[nH]1)Nc1nc(-c2ccc(Br)cc2)cs1 in this test.
Completion: inactive

Prompt: Look up the recorded call for COc1ccc(-c2ccc(Nc3ccc(S(=O)(=O)N4CCCC4)cc3)nn2)cc1OC in this test.
Completion: inactive

Prompt: Look up the recorded call for CCOC(=O)c1ccccc1C(=O)N1CCOCCOCCOCC1 in this test.
Completion: inactive

Prompt: Look up the recorded call for Cc1noc(C)c1C(=O)N1CCOCC1 in this test.
Completion: inactive

Prompt: Look up the recorded call for CCOP(=O)(OCC)C(Nc1ccc([N+](=O)[O-])cc1)c1ccc(Cl)cc1 (stereo unspecified) in this test.
Completion: inactive

Prompt: Look up the recorded call for O=c1oc2ccccc2c(NC2CCCCC2)c1NS(=O)(=O)c1ccc(Cl)cc1 in this test.
Completion: inactive

Prompt: Look up the recorded call for Cc1ccc(Nc2nc(CSc3nnc(-c4ccncc4)n3-c3ccccc3C)cs2)cc1 in this test.
Completion: inactive

Prompt: Look up the recorded call for Cc1nc2ccccc2nc1N/N=C/c1ccc(O)cc1O in this test.
Completion: active

Prompt: Look up the recorded call for COc1ccc(-c2cc(C(F)(F)F)nc(NCc3cccnc3)n2)cc1 in this test.
Completion: inactive

Origin of values: PubChem BioAssay AID2221
